Values from paper PMC9482650

Target: T1, SNTG1, Q9NSN8
T1 sequence (Q9NSN8 52-150, limits assumed, looked up): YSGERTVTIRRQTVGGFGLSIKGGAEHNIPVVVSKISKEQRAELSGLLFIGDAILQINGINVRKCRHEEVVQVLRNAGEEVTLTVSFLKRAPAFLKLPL
Experiment: holdup assay
Design: key: below the threshold = too weak to quantify, mostly under pKd 3.1 to 4
Details: plain residues with an end cap or a label only (N-terminal biotin on a linker: ttds)
Each entry below lists one item and its recorded pKd value.
Give the figure only, with no unit attached.

Check out these entries, answers already filled in.
RLPKIKETTV [FRMPD4, Q14CM0] ... 5.02
SKPTRRETEV [HPV35-E6, P27228] ... 4.31

In: Please give the documented pKd of SSLQSLETSV [ATP2B4, P23634]
Out: 5.08
